- Assay text: xn = mol fraction of the nth substance listed
- Experimental conditions: 308.15 K; 101 kPa; x2 = 0.3
Measure name: viscosity (mPa·s)
Reply numerically in mPa·s, unit not repeated.

Task: For the molecule CCCCCCCCCCO + CO , what viscosity is on record?
Output: 5.115

Task: Record: CCCCCCCCCCO + CCCCO
Output: 5.576

Task: Record: CCCCCCCCCCO + CCO
Output: 5.364
